Target: GST-SAST2 PDZ domain 1 (human)
Test: Matrix/G assay ELISA, E6 peptide titrated on GST-PDZ
pEC50: −log10 of the molar value. Ends that are not written are not given here.

>  <binder>
WTGRCMSCCRSSRTRRETQL (not fully specified; cysteine pairing not given here) [HPV16 E6 C-terminal PDZ ligand peptide (20 mer, biotinylated), P03126 139-158]

>  <pEC50>
5.92

$$$$

Origin of measurements: patent US20040229298A1
